Quick reference: LD50 of the listed items.
- procedure-details: Acute oral toxicity (LD50 p.o.)
- settings: rat, in vivo, rats, read-out: Acute oral toxicity (LD50,kgx10^-6/kg)
All answers are understood in mg/kg, so give the number only.

>>> reported("CN=C(NC#N)NCCCCn1nc(-c2ccc(Cl)cc2)ccc1=O")
4800

Now for another entry.
Query :: Recorded LD50 of CN=C(NC#N)NCCSCn1nc(-c2ccccc2)ccc1=O , please.
Result :: 4800

----------
- Test system: Stress ulcer
- procedure-details: Stress ulcer (restriction in water)
- Assay type: in vivo
- settings: Rattus norvegicus, po; rats, 100 mg/kg orally, immersed in water at 23°C for 20 hours, length of erosion; read-out: Rate of inhibition, Stress ulcer (%)
Give fulfilled when the value for inhibition in vivo at 100 mg/kg is at least 70%. Give not fulfilled when it is less.

As a guide, the following entries are already answered.
>>> cat("CCN=C(NC#N)NCCCCCn1nc(-c2ccccc2)ccc1=O")
"fulfilled"
>>> cat("CCN=C(NC#N)NCCCCn1nc(-c2ccccc2)ccc1=O")
"fulfilled"

Continue with the compound presented below.
Query :: # bool: inhibition in vivo at 100 mg/kg of CN=C(NC#N)NCCCCn1nc(-c2ccccc2)cc(C)c1=O >= 70%
Result :: not fulfilled

----------
- System: Stress ulcer
- procedure-details: Stress ulcer (restriction in water)
- Type: in vivo
- settings: Rattus norvegicus, po; rats, 100 mg/kg orally, immersed in water at 23°C for 20 hours, length of erosion; read-out: Rate of inhibition, Stress ulcer (%)
- Method: One group of 10 rats of body weight of from 2x10^-1 to 2.5x10^-1kg (200 to 250 g) after oral administration of an aqueous suspension of the compound of the invention being tested in a 1% CMC solution at a dose of 10^-4 kg/kg (100 mg/kg) were kept in stress cages and immersed in water at a temperature of 23°C to the depth of their thorax for 20 hours to give a stress of restriction in water. […]
Quick reference: inhibition in vivo at 100 mg/kg of the listed items.
All answers are understood in %, so give the number only.

>>> reported("CN=C(NC#N)NCCCCn1nc(-c2ccccc2)ccc1=O")
71.2
>>> reported("CN=C(NC#N)NCCCCn1nc(-c2ccc(Cl)cc2)ccc1=O")
72.1
>>> reported("CN=C(NC#N)NCCCCn1nc(-c2ccc(C)cc2)ccc1=O")
70.5
>>> reported("CCN=C(NC#N)NCCCn1nc(-c2ccccc2)ccc1=O")
70.5

Query :: Recorded inhibition in vivo at 100 mg/kg of CN=C(NC#N)NCCSCn1nc(-c2ccccc2)ccc1=O , please.
Result :: 68.2
